assay: NCI Yeast Anticancer Drug Screen. Data for the mec2-1 strain (AID 157); settings: S. cerevisiae mec2-1 strain, at 50.0 µM, active compounds read high
This is part of a sample that, as a whole, favours compounds with a hit. Of some 79,000 tested, about 15% had one in any assay.
Consider the following molecules and their measured growth inhibition readings.
Answer in %, number only, no unit symbol.

Would you please look over these solved cases?
molecule	measured
O=c1oc2c(Cl)cc(Cl)cc2cc1-c1nc2ccccc2[nH]1	38.2
C1CCC(NCCNC2CCCCC2)CC1	-16.9
CC(=N/N(C)c1ccccc1)/C(C)=N/N(C)c1ccccc1	6.7

IN: Provide only the value of recorded growth inhibition for CCOP(=O)(OCC)C1OCC(O)C(C2OC(P(=O)(OCC)OCC)OCC2O)O1 (stereo not drawn)
OUT: 4.4

IN: Return the recorded growth inhibition value; entry: `O=C(c1ccc(F)cc1)c1ccc2ccccc2c1C(=O)O`
OUT: 7.65

IN: Provide growth inhibition value for the following molecule: `CN(C)Cc1ccccc1C=C(c1ccccc1)c1ccccc1`
OUT: 0.65

IN: Look up and report measured growth inhibition for this entry: `CC(C)(N=NC(C)(C)C(=O)NCCO)C(=O)NCCO`
OUT: -6.65

IN: Fill in reported growth inhibition for this entry: `Cc1cc(C(c2ccc(Nc3ccccc3)cc2)c2ccc(Nc3ccccc3)cc2)ccc1Nc1ccccc1`
OUT: -4.65

IN: Identify measured growth inhibition associated with `c1ccc(Nc2nnc(-c3nsc4ccccc34)o2)cc1`
OUT: -40.9
